Tested on: Pseudomonas aeruginosa
Assay: Antibacterial activity against Pseudomonas aeruginosa PAO1 assessed as bacterial growth inhibition incubated for overnight by microbroth dilution method
Type: functional
observation_type: MIC

* CO[C@@H]1[C@@H](OC(N)=O)[C@@H](O)[C@H](Oc2ccc3c(O)c(NC(=O)c4ccc(O)c(CC=C(C)C)c4)c(=O)oc3c2C)OC1(C)C | > 128 µg/mL
* N=C(N)NCCCCCCCCNC(=N)N | > 128 µg/mL
* CCCCC/C=C\C/C=C\CCCCCCCCNC(=N)NCCCCN | 16 µg/mL
* CCCCCCCC/C=C\CCCCCCCCNC(=N)NCCCCNC(=N)N | 128 µg/mL
* NCCCCCCCCN=C(N)N | > 128 µg/mL
* CCCCCCCCCCNC(=N)NCCCCN | > 128 µg/mL
* CO[C@H]1/C=C/O[C@@]2(C)Oc3c(C)c(O)c4c(O)c(c(/C=N/N5CCN(C)CC5)c(O)c4c3C2=O)NC(=O)/C(C)=C\C=C\[C@H](C)[C@H](O)[C@@H](C)[C@@H](O)[C@@H](C)[C@H](OC(C)=O)[C@@H]1C | 32 µg/mL
* NCCCCN=C(N)N | > 128 µg/mL
* CCCCCCCCCCNC(=N)NCCCCNC(=N)N | 64 µg/mL
* CCCCCCCC/C=C\CCCCCCCCNC(=N)NCCCCCCCCNC(=N)N | > 128 µg/mL
* CCCCCCCCCCCCCCCCCCNC(=N)NCCCCN | > 128 µg/mL
* CCCCC/C=C\C/C=C\CCCCCCCCNC(=N)NCCCCCCCCNC(=N)N | > 128 µg/mL
* CCCCCCCC/C=C\CCCCCCCCNC(=N)NCCCCN | 128 µg/mL
* CCCCCCCCCCCCCCCCNC(=N)NCCCCN | > 128 µg/mL
* CC/C=C\C/C=C\C/C=C\CCCCCCCCNC(=N)NCCCCN | > 128 µg/mL
* CCCCCCCCCCCCNC(=N)NCCCCN | > 128 µg/mL
* CCCCC/C=C\C/C=C\CCCCCCCCNC(=N)NCCCCNC(=N)N | 64 µg/mL
* CCCCC/C=C\C/C=C\CCCCCCCCNC(=N)NCCCCCCCCN | > 128 µg/mL
* CCCCCCCC/C=C\CCCCCCCCNC(=N)NCCCCCCCCNC(=N)NCCCCCCCC/C=C\CCCCCCCC | > 128 µg/mL
* CCCCCCCC/C=C\CCCCCCCCNC(=N)NCCCCCCCCN | > 128 µg/mL
* CCCCCCCC/C=C\CCCCCCCCNC(=N)NCCN(CCN)CCN | 64 µg/mL

---

Experiment: Hemolytic activity in human Red blood cells at 512 microg/ml measured after 1 hrs by absorbance based assay relative to control
Type: toxicity, cell-based, Erythrocyte
Details: red blood cells (erythrocytes), at 512 µg/mL, read-out: Activity
Each entry below carries its reported hemolysis at 1 h, 512 microg/ml.
observation_type: hemolysis at 1 h, 512 microg/ml (%)

• CCCCC/C=C\C/C=C\CCCCCCCCNC(=N)NCCCCN = 100
• CCCCCCCCCCNC(=N)NCCCCN = 8.2

---

Test system: Staphylococcus aureus
Assay: Antibacterial activity against methicillin resistant Staphylococcus aureus USA 300 assessed as bacterial growth inhibition incubated for overnight by microbroth dilution method
Assay type: functional
Each entry below carries its recorded MIC.
observation_type: MIC

* CC/C=C\C/C=C\C/C=C\CCCCCCCCNC(=N)NCCCCN | 4 µg/mL
* CCCCC/C=C\C/C=C\CCCCCCCCNC(=N)NCCCCCCCCN | 2 µg/mL
* CCCCCCCCCCCCCCCCCCNC(=N)NCCCCN | 2 µg/mL
* CCCCCCCC/C=C\CCCCCCCCNC(=N)NCCCCCCCCNC(=N)NCCCCCCCC/C=C\CCCCCCCC | 64 µg/mL
* CCCCC/C=C\C/C=C\CCCCCCCCNC(=N)NCCCCNC(=N)N | 4 µg/mL
* N=C(N)NCCCCCCCCNC(=N)N | 128 µg/mL
* CCCCCCCC/C=C\CCCCCCCCNC(=N)NCCCCCCCCN | 2 µg/mL
* CCCCCCCCCCNC(=N)NCCCCN | 32 µg/mL
* CCCCCCCC/C=C\CCCCCCCCNC(=N)NCCN(CCN)CCN | 4 µg/mL
* CCCCCCCCCCCCCCCCNC(=N)NCCCCN | 2 µg/mL
* CCCCC/C=C\C/C=C\CCCCCCCCNC(=N)NCCCCCCCCNC(=N)N | 2 µg/mL
* CCCCC/C=C\C/C=C\CCCCCCCCNC(=N)NCCCCN | 8 µg/mL

---

Test system: Klebsiella pneumoniae
Assay: Synergistic antibacterial activity against […] Klebsiella pneumoniae NCTC 13368 assessed as novobiocin MIC at <=0.25 times MIC incubated for overnight by microbroth dilution checkerboard assay
Format: functional
observation_type: MIC

- CCCCCCCC/C=C\CCCCCCCCNC(=N)NCCCCN: > 128 µg/mL
- CC/C=C\C/C=C\C/C=C\CCCCCCCCNC(=N)NCCCCN: > 128 µg/mL
- CCCCC/C=C\C/C=C\CCCCCCCCNC(=N)NCCCCN: > 128 µg/mL
- CCCCCCCCCCNC(=N)NCCCCN: 16 µg/mL
- CCCCCCCC/C=C\CCCCCCCCNC(=N)NCCCCNC(=N)N: > 128 µg/mL
- CCCCCCCCCCNC(=N)NCCCCNC(=N)N: 8 µg/mL

---

Test system: Klebsiella pneumoniae
Test: Synergistic antibacterial activity against Klebsiella pneumoniae NCTC 13368 assessed as fold change in rifampicin MIC at <=0.25 times MIC incubated for overnight by microbroth dilution checkerboard assay relative to rifampicin alone
Assay type: functional
observation_type: fold change (FC)

* CCCCCCCCCCNC(=N)NCCCCN1CCCC1 | >=4
* CCCCCCCCCCCCCCCCNC(=N)NCCCCN | >=4
* CCCCCCCCCCNC(=N)NCCCCCCCCCC | 0
* CCCCCCCC/C=C\CCCCCCCCNC(=N)NCCCCNC(=N)N | >=4
* CCCCCCCCCCCC(=O)NCCCC | 0
* CCCCCCCCCCNC(=N)NCCCCN(C)C | >=4
* CCCCC/C=C\C/C=C\CCCCCCCCNC(=N)NCCCCCCCCNC(=N)N | >=4

---

System: Pseudomonas aeruginosa
Experiment: Synergistic antibacterial activity against Pseudomonas aeruginosa NCTC 13437 assessed as rifampicin MIC at <=0.25 times MIC incubated for overnight by microbroth dilution checkerboard assay
Format: functional
observation_type: MIC

* CCCCCCCCCCCCNC(=N)NCCCCN | ≤ 0.125 mg/L
* CCCCCCCCCCNC(=N)NCCCCN | ≤ 0.125 mg/L
* CCCCCCCCCCNC(=N)NCCCCNC(=N)N | ≤ 0.125 mg/L

---

System: Klebsiella pneumoniae
Assay: Antibacterial activity against Klebsiella pneumoniae M6 assessed as bacterial growth inhibition incubated for overnight by microbroth dilution method
observation_type: MIC (µg/mL)

- CC/C=C\C/C=C\C/C=C\CCCCCCCCNC(=N)NCCCCN: 128
- CCCCCCCC/C=C\CCCCCCCCNC(=N)NCCCCN: 8
- CCCCC/C=C\C/C=C\CCCCCCCCNC(=N)NCCCCCCCCN: 16
- CCCCCCCCCCCCCCCCNC(=N)NCCCCN: 8
- CCCCC/C=C\C/C=C\CCCCCCCCNC(=N)NCCCCNC(=N)N: 32
- CCCCCCCC/C=C\CCCCCCCCNC(=N)NCCCCNC(=N)N: 16
- CO[C@H]1/C=C/O[C@@]2(C)Oc3c(C)c(O)c4c(O)c(c(/C=N/N5CCN(C)CC5)c(O)c4c3C2=O)NC(=O)/C(C)=C\C=C\[C@H](C)[C@H](O)[C@@H](C)[C@@H](O)[C@@H](C)[C@H](OC(C)=O)[C@@H]1C: 32
